System: HCI03 (cells of an ER-positive luminal breast cancer xenograft)
method.description: cell viability (% of vehicle); higher = less cytotoxic;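 also: PDX cells carrying CMV promoter-driven luciferase, viability read as total photon flux per second by IVIS imaging following D-luciferin, vehicle control 0.1% DMSO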
reported.conditions: 10 µM; 72 h
Doc: threshold 100 (exclusive). Items with cell viability beneath it return true (1); others return false (0).

Completed entries (count: 5):
compound | group.label
Cl.NCCCC(N)(C(=O)O)C(F)F.O (racemic) [DL-α-Difluoromethylornithine (hydrochloride hydrate)] | true (1)
COc1cccc2c1C(=O)c1c(O)c3c(c(O)c1C2=O)C[C@@](O)(C(C)=O)C[C@@H]3O[C@H]1C[C@H](N)[C@H](O)[C@H](C)O1.Cl [Daunorubicin HCl] | false (0)
NS(=O)(=O)c1cc(C(=O)O)c(NCc2ccco2)cc1Cl [Furosemide] | false (0)
N#CC1CCCN1C(=O)CNC12CC3CC(CC(O)(C3)C1)C2 (stereo unspecified) | false (0)
CN1CCN(CCCN2c3ccccc3Sc3ccc(C(F)(F)F)cc32)CC1.Cl.Cl [Trifluoperazine 2HCl] | true (1)

Does this compound meet the criterion cell viability < 100? O=C(O)CSCC(=O)NC1CCSC1=O (stereo unspecified) false (0)

Does this compound meet the criterion cell viability < 100? Cc1cccc(CN2CCN(C(c3ccccc3)c3ccc(Cl)cc3)CC2)c1.Cl.Cl (stereo unspecified) [Meclizine 2HCl] true (1)

Does this compound meet the criterion cell viability < 100? CCCCCCCCc1ccc(CCC(N)(CO)CO)cc1.Cl true (1)

Does this compound meet the criterion cell viability < 100? CC(C)Cn1cnc2c(N)nc3ccccc3c21 false (0)

Does this compound meet the criterion cell viability < 100? COC(=O)CCc1ccc(OCC(O)CNC(C)C)cc1.Cl (stereo unspecified) [Esmolol HCl] false (0)

----------
System: HCI01 (cells of a triple-negative basal-like breast cancer xenograft)
method.description: cell viability (% of vehicle); higher = less cytotoxic
reported.conditions: 10 µM; 72 h
Counter-ions that a name gives are not always drawn.
Doc: threshold 90 (exclusive). Items with cell viability beneath it return Condition met; others return Condition not met.

Completed entries (count: 4):
molecule | group.label
CCn1cc(C(=O)O)c(=O)c2cnc(N3CCCC3)nc21 [Piromidic Acid] | Condition not met
Nc1nc(F)nc2c1ncn2C1OC(COP(=O)(O)O)C(O)C1O (configuration not stated) [Fludarabine Phosphate (Fludara)] | Condition not met
CN1CCN(CCOc2cc(OC3CCOCC3)c3c(Nc4c(Cl)ccc5c4OCO5)ncnc3c2)CC1 [Saracatinib (AZD0530)] | Condition met
COc1ccc2c(O[C@H]3CC4C(=O)N(C)CCCC/C=C\[C@H]5C[C@@]5(C(=O)NS(=O)(=O)C5CC5)NC(=O)[C@@H]4C3)cc(-c3nc(C(C)C)cs3)nc2c1C (some centres not stated) [Simeprevir] | Condition met

Does this molecule meet the criterion cell viability < 90? Cl.NNc1nncc2ccccc12 [Hydralazine HCl] Condition not met

Does this molecule meet the criterion cell viability < 90? COc1c(C)c2c(c(O)c1CC=C(C)CCC(=O)OCCN1CCOCC1)C(=O)OC2 [Mycophenolate Mofetil] Condition not met

Does this molecule meet the criterion cell viability < 90? O=C(O)CCNC(=O)c1ccccc1 [Betamipron] Condition not met

Does this molecule meet the criterion cell viability < 90? CC(Oc1cc(-c2cnn(C3CCNCC3)c2)cnc1N)c1c(Cl)ccc(F)c1Cl [(R)-Crizotinib] Condition met

Does this molecule meet the criterion cell viability < 90? CC1COc2c(N3CCN(C)CC3)c(F)cc3c(=O)c(C(=O)O)cn1c23 (configuration not stated) [Ofloxacin] Condition not met

Does this molecule meet the criterion cell viability < 90? COc1ccc(C2CNC(=O)C2)cc1OC1CCCC1 (stereo not drawn) [S- (+)-Rolipram] Condition not met

Does this molecule meet the criterion cell viability < 90? CCCCCCCN(CC)CCCC(O)c1ccc(NS(C)(=O)=O)cc1.CCCCCCCN(CC)CCCC(O)c1ccc(NS(C)(=O)=O)cc1.O=C(O)C=CC(=O)O (configuration not stated) [Ibutilide Fumarate] Condition not met

Does this molecule meet the criterion cell viability < 90? CCc1c2c(nc3ccc(OC(=O)N4CCC(N5CCCCC5)CC4)cc13)-c1cc3c(c(=O)n1C2)COC(=O)[C@]3(O)CC [Irinotecan HCl Trihydrate] Condition met
